assay-target: Escherichia coli DNA gyrase (Escherichia coli, UniProt P0AES4+P0AES6)
assay-method-text: Gyrase Supercoiling High Throughput Plate assay (E. coli)
condition-label: mean of two to four independent measurements
pIC50: −log10 of the molar value.
Kind request: treat 5 as inclusive, so pIC50 at 5 or higher is y, anything lower is n.

### Prompt For this molecule, is measured pIC50 5 or higher? COc1ccc2nccc(CCN3CCC(NCc4ccc(C(N)=O)cc4)CC3)c2n1
### Response n

### Prompt Dear colleague, could you confirm whether COc1ccc2nccc(CCN3CCC(NCc4ccc(OC(F)F)c(OC)c4)CC3)c2n1 has pIC50 at or above 5?
### Response y

### Prompt Check this molecule for pIC50 at or above 5: COc1ccc2nccc(CCN3CCC(NCc4ccc(OC(F)F)c(O)c4)CC3)c2n1
### Response y

### Prompt Reported pIC50 at or above 5? COc1ccc2nccc(CCN3CCC(NCc4ccc(CO)cc4)CC3)c2n1
### Response n

### Prompt Decide: pIC50 of COc1ccc2nccc(CCN3CCC(NCc4ccc(F)cc4)CC3)c2n1 >= 5?
### Response n

### Prompt Would you say C=CCn1cc(CNC2CCN(CCc3ccnc4ccc(OC)nc34)CC2)cn1 shows pIC50 at minimum 5?
### Response n

### Prompt Reported pIC50 reaches at least 5 for COc1ccc2nccc(CCN3CCC(NCc4ccccc4)CC3)c2n1 ?
### Response n
